Listed compounds paired with reported clearance
# experiment: Plasma clearance in Sprague-Dawley rat at 1.0 mg/kg, iv or 2.0 mg/kg, po
# Format: ADME, organism-based
Number in mL/min/kg, nothing else.

Solved entries:
{"columns": ["compound", "clearance, mL/min/kg"],
 "data": [
  ["Cc1cc(C(C)CC(=O)O)ccc1-c1noc(-c2ccc(OC(C)C)c(C(F)(F)F)c2)n1 (stereo not given)", 2.9],
  ["Cc1cc(CC(C)C(=O)O)ccc1-c1noc(-c2ccc(OC(C)C)c(C(F)(F)F)c2)n1 (stereo not given)", 7],
  ["Cc1cc([C@@H]2C[C@H]2C(=O)O)ccc1-c1noc(-c2ccc(OC(C)C)c(C(F)(F)F)c2)n1", 2.4],
  ["Cc1nc(CCC(=O)O)ccc1-c1noc(-c2ccc(OC(C)C)c(C#N)c2)n1", 1.2]
]}

Enquiry: GET /values?readout=clearance&item= "Cc1cc([C@H]2C[C@H]2C(=O)O)ccc1-c1noc(-c2ccc(OC(C)C)c(C#N)c2)n1"
Return: 1.2

---

Listed molecules paired with reported pEC50
# target-or-test-system: Sphingosine 1-phosphate receptor 3 (Homo sapiens)
# Sequence (Q99500 whole entry): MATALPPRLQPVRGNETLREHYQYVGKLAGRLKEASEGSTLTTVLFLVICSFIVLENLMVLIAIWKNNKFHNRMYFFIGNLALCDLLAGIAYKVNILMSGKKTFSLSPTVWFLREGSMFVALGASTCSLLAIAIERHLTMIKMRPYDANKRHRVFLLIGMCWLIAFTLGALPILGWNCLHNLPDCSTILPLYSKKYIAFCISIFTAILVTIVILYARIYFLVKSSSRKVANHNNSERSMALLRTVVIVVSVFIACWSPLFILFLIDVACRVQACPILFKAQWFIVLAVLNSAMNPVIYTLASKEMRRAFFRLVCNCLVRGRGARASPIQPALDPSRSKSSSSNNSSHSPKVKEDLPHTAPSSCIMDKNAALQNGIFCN
# experiment: […] of [35S]GTP-gamma-S from human S1P3 receptor expressed in CHO cells
Quick note: pEC50 means taking -log10 of the concentration in moles per liter.

Solved entries:
{"columns": ["molecule", "pEC50"],
 "data": [
  ["Cc1cc(C(C)CC(=O)O)ccc1-c1noc(-c2ccc(OC(C)C)c(C(F)(F)F)c2)n1 (stereo not given)", 6.74],
  ["Cc1cc(CC(C)C(=O)O)ccc1-c1noc(-c2ccc(OC(C)C)c(C(F)(F)F)c2)n1 (stereo not given)", 6.40],
  ["Cc1nc(CCC(=O)O)ccc1-c1noc(-c2ccc(OC(C)C)c(C#N)c2)n1", 5.56]
]}

For the next question, use this molecule.
Enquiry: GET /values?readout=pEC50&item= "Cc1cc([C@@H]2C[C@H]2C(=O)O)ccc1-c1noc(-c2ccc(OC(C)C)c(C(F)(F)F)c2)n1"
Return: 6.91

---

# target-or-test-system: Sphingosine 1-phosphate receptor 1 (Homo sapiens)
# Sequence (P21453 whole entry): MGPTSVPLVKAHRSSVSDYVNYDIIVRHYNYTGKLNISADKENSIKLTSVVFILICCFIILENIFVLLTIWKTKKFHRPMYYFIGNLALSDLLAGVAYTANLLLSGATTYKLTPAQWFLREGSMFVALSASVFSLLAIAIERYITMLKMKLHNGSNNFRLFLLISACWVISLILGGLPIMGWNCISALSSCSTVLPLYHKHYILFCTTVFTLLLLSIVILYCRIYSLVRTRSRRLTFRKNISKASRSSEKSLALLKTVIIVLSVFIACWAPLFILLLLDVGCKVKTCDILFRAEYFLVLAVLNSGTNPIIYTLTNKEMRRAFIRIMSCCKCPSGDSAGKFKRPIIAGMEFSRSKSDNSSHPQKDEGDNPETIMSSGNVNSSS
# experiment: […] of [35S]GTPgammaS from human S1P1 receptor expressed in CHO cells
# Type: functional, cell-based
readout-kind: EC50 (nM)
Number in nM, nothing else.

{"columns": ["compound", "EC50 [nM]"],
 "data": [
  ["Cc1nc(CCC(=O)O)ccc1-c1noc(-c2ccc(OC(C)C)c(C#N)c2)n1", 0.44]
]}

Enquiry: GET /values?readout=EC50&item= "Cc1cc(CCC(=O)O)ccc1-c1noc(-c2ccc(OC(C)C)c(C#N)c2)n1"
Return: 0.08

Enquiry: GET /values?readout=EC50&item= "Cc1cc(CCC(=O)O)ccc1-c1noc(-c2ccc(OC(C)C)c(C(F)(F)F)c2)n1"
Return: 0.08

Enquiry: GET /values?readout=EC50&item= Cc1cc(CC(C)C(=O)O)ccc1-c1noc(-c2ccc(OC(C)C)c(C(F)(F)F)c2)n1 (stereo unspecified)
Return: 0.3

Enquiry: GET /values?readout=EC50&item= "Cc1cc([C@H]2C[C@H]2C(=O)O)ccc1-c1noc(-c2ccc(OC(C)C)c(C#N)c2)n1"
Return: 0.8

Enquiry: GET /values?readout=EC50&item= Cc1cc(C(C)CC(=O)O)ccc1-c1noc(-c2ccc(OC(C)C)c(C(F)(F)F)c2)n1 (stereo unspecified)
Return: 0.12

---

# experiment: Bioavailability in Sprague-Dawley rat at 2.0 mg/kg, po
# Assay type: ADME, organism-based
# assay-conditions: Sprague-Dawley, in vivo
readout-kind: bioavailability (%)
Number in %, nothing else.

Solved entries:
{"columns": ["molecule", "units-symbol", "bioavailability"],
 "data": [
  ["Cc1nc(CCC(=O)O)ccc1-c1noc(-c2ccc(OC(C)C)c(C#N)c2)n1", "%", 93],
  ["Cc1cc([C@H]2C[C@H]2C(=O)O)ccc1-c1noc(-c2ccc(OC(C)C)c(C#N)c2)n1", "%", 89]
]}

Enquiry: GET /values?readout=bioavailability&item= Cc1cc(C(C)CC(=O)O)ccc1-c1noc(-c2ccc(OC(C)C)c(C(F)(F)F)c2)n1 (stereo unspecified)
Return: 100

Enquiry: GET /values?readout=bioavailability&item= "Cc1cc([C@@H]2C[C@H]2C(=O)O)ccc1-c1noc(-c2ccc(OC(C)C)c(C(F)(F)F)c2)n1"
Return: 88

Enquiry: GET /values?readout=bioavailability&item= Cc1cc(CC(C)C(=O)O)ccc1-c1noc(-c2ccc(OC(C)C)c(C(F)(F)F)c2)n1 (stereo unspecified)
Return: 82

Enquiry: GET /values?readout=bioavailability&item= "Cc1cc([C@@H]2C[C@H]2C(=O)O)ccc1-c1noc(-c2ccc(OC(C)C)c(C#N)c2)n1"
Return: 84

---

# target-or-test-system: UniProt:Q9H228
# Sequence (Q9H228 whole entry): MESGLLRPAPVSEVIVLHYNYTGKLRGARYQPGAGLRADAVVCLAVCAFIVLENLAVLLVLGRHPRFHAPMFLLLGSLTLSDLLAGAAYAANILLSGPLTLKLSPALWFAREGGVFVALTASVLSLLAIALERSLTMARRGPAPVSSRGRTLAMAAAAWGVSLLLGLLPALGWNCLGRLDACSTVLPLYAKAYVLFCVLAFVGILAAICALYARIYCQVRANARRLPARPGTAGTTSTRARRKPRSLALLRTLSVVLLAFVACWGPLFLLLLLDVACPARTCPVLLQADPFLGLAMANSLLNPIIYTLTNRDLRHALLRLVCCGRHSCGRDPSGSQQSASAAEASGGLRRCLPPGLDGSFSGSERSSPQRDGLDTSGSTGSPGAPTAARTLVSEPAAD
# experiment: […] of [35S]GTP-gamma-S from human S1P5 receptor expressed in CHO cells
pEC50: −log10 of the molar value.
Parameter threshold = 8. Response is Y when pEC50 meets or exceeds it, else N.

Take a look at these entries with their results.
{"columns": ["compound", "assigned-class"],
 "data": [
  ["Cc1cc([C@@H]2C[C@H]2C(=O)O)ccc1-c1noc(-c2ccc(OC(C)C)c(C(F)(F)F)c2)n1", "Y"],
  ["Cc1nc(CCC(=O)O)ccc1-c1noc(-c2ccc(OC(C)C)c(C#N)c2)n1", "N"],
  ["Cc1cc([C@H]2C[C@H]2C(=O)O)ccc1-c1noc(-c2ccc(OC(C)C)c(C#N)c2)n1", "N"]
]}

Enquiry: API: above_or_equal(metric=pEC50, cutoff=8) for item Cc1cc(C(C)CC(=O)O)ccc1-c1noc(-c2ccc(OC(C)C)c(C(F)(F)F)c2)n1 (stereo not given)
Return: Y

---

# experiment: Half life in Sprague-Dawley rat at 1.0 mg/kg, iv or 2.0 mg/kg, po
# Type: ADME, organism-based
# assay-conditions: Sprague-Dawley, in vivo
Lab note: anything with half-life below 5 h is marked Criterion met; values at 5 h or higher are marked Criterion not met.

{"columns": ["compound", "assigned-class"],
 "data": [
  ["Cc1cc(CC(C)C(=O)O)ccc1-c1noc(-c2ccc(OC(C)C)c(C(F)(F)F)c2)n1 (stereo unspecified)", "Criterion met"],
  ["Cc1cc([C@@H]2C[C@H]2C(=O)O)ccc1-c1noc(-c2ccc(OC(C)C)c(C(F)(F)F)c2)n1", "Criterion not met"],
  ["Cc1cc([C@H]2C[C@H]2C(=O)O)ccc1-c1noc(-c2ccc(OC(C)C)c(C#N)c2)n1", "Criterion not met"],
  ["Cc1cc(C(C)CC(=O)O)ccc1-c1noc(-c2ccc(OC(C)C)c(C(F)(F)F)c2)n1 (stereo unspecified)", "Criterion met"]
]}

Enquiry: Bench note: check whether "Cc1nc(CCC(=O)O)ccc1-c1noc(-c2ccc(OC(C)C)c(C#N)c2)n1" shows half-life below 5 h
Return: Criterion met

---

Listed compounds paired with reported Vd
# experiment: Volume of distribution at steady state in Sprague-Dawley rat at 1.0 mg/kg, iv or 2.0 mg/kg, po
# Type: ADME, organism-based
# assay-conditions: Sprague-Dawley, in vivo, read-out: Vdss
Number in L/kg, nothing else.

Solved entries:
{"columns": ["compound", "Vd / L/kg"],
 "data": [
  ["Cc1cc([C@H]2C[C@H]2C(=O)O)ccc1-c1noc(-c2ccc(OC(C)C)c(C#N)c2)n1", 0.7],
  ["Cc1nc(CCC(=O)O)ccc1-c1noc(-c2ccc(OC(C)C)c(C#N)c2)n1", 0.3],
  ["Cc1cc([C@@H]2C[C@H]2C(=O)O)ccc1-c1noc(-c2ccc(OC(C)C)c(C(F)(F)F)c2)n1", 1.1],
  ["Cc1cc(C(C)CC(=O)O)ccc1-c1noc(-c2ccc(OC(C)C)c(C(F)(F)F)c2)n1 (stereo not given)", 0.6]
]}

For the next question, use this compound.
Enquiry: GET /values?readout=Vd&item= Cc1cc(CC(C)C(=O)O)ccc1-c1noc(-c2ccc(OC(C)C)c(C(F)(F)F)c2)n1 (stereo not given)
Return: 1.5
